Assignment: determine reported GI for the given compounds.
- System: Mycobacterium avium subsp. paratuberculosis
- experiment.summary: Ability to act as growth factor for Mycobacterium paratuberculosis at 2.4 uM concentration, expressed as growth index
- Format: functional, mycobacteria paratuberculosis

Query string: State the recorded GI for this entry: O=C(CC(O)(CC(=O)NCCCCN(O)C(=O)/C=C/c1ccccc1)C(=O)O)NCCCCN(O)C(=O)/C=C/c1ccccc1
Result string: 1.5

Query string: Need GI, item CC(C)(C)OC(=O)C(O)(CC(=O)NCCCN(O)C(=O)/C=C/c1ccccc1)CC(=O)NCCCN(O)C(=O)/C=C/c1ccccc1
Result string: 4.6

Query string: Query: GI; subject: CCCCC/C=C/C(=O)N(O)CCCNC(=O)CC(O)(CC(=O)NCCCN(O)C(=O)/C=C/CCCCC)C(=O)OC(C)(C)C
Result string: 0.69

Query string: Return reported GI; argument: CCCCCCCCCCCCC/C=C/C(=O)N(O)CCCC[C@H](NC(=O)[C@@H]1COC(c2ccccc2O)=N1)C(=O)OC(C(C)C)C(C)C(=O)N[C@H]1CCCCN(O)C1=O (some centres undefined)
Result string: 1

Query string: For the compound COC(=O)[C@H](CCCCN(O)C(=O)/C=C/c1ccccc1)NC(=O)CC(O)(CC(=O)N[C@@H](CCCCN(O)C(=O)/C=C/c1ccccc1)C(=O)OC)C(=O)O , what GI is on record?
Result string: 2.5

Query string: Tell me the measured GI of CCCCC/C=C/C(=O)N(O)CCCNC(=O)CC(O)(CC(=O)NCCCN(O)C(=O)/C=C/CCCCC)C(=O)O , please.
Result string: 1

Query string: Please give the measured GI for this compound: CC(=O)N(O)CCCCCNC(=O)CCC(=O)N(O)CCCCCNC(=O)CCC(=O)N(O)CCCCCN
Result string: 0.92

Query string: Please report the recorded GI for CCCCC/C=C/C(=O)N(O)CCCNC(=O)CC1(O)CC(=O)N(CCCN(O)C(=O)/C=C/CCCCC)C1=O (centres undefined) .
Result string: 4.6

Query string: Which value of GI has been reported for O=C(CC(O)(CC(=O)NCCCN(O)C(=O)/C=C/c1ccccc1)C(=O)O)NCCCN(O)C(=O)/C=C/c1ccccc1 in the records?
Result string: 0.76
